Test: self-splicing fitness, log relative to wild type (ln ratio); higher = more splicing; Tetrahymena group I intron in knt gene, E. coli kanamycin selection, DiMSum; sequences stand for … in CUCUCU…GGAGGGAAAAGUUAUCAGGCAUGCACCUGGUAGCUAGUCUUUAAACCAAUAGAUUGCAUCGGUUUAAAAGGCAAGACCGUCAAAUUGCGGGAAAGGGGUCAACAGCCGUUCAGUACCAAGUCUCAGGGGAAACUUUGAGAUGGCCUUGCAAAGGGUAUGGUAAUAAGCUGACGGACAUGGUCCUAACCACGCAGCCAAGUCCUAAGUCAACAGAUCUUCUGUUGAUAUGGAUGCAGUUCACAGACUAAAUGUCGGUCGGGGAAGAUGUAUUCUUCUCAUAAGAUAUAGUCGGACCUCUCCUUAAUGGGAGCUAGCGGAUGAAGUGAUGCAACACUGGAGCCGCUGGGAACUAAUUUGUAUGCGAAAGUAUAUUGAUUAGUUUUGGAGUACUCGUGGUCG;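 also: selection with 25 µg/mL kanamycin versus none on LB agar overnight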
Conditions: 30 °C
Kindly supply the reported self-splicing fitness (ln) values for the records listed here.
# print the numeric value only

I would be grateful if you could share the reported self-splicing fitness (ln) for `GGAAAGCAAUAUUACGUAGA` .
-0.977

I would be grateful if you could share the reported self-splicing fitness (ln) for `CUAUAGCAAUAUUACGUGCA` .
-3.24

I would be grateful if you could share the reported self-splicing fitness (ln) for `CUAUAGCAAUAUUACGGCAA` .
-3.31

I would be grateful if you could share the reported self-splicing fitness (ln) for `AUGAAGCAAUAUUACGAAAU` .
-0.819

I would be grateful if you could share the reported self-splicing fitness (ln) for `AUCCAGCAAUAUUACGUCAA` .
-1.99

I would be grateful if you could share the reported self-splicing fitness (ln) for `CAAUAGCAAUAUUACGUGCA` .
-2.72

I would be grateful if you could share the reported self-splicing fitness (ln) for `AGCCAGCAAUAUUACGGUGU` .
-1.99

I would be grateful if you could share the reported self-splicing fitness (ln) for `UCCAAGCAAUAUUACGAAGU` .
-1.09

I would be grateful if you could share the reported self-splicing fitness (ln) for `CAACAGCAAUAUUACGACAU` .
-2.03

I would be grateful if you could share the reported self-splicing fitness (ln) for `AGAAAGCAAUAUUACGUUGA` .
-2.09

I would be grateful if you could share the reported self-splicing fitness (ln) for `GUGAAGCAAUAUUACGUCAA` .
-1.07

I would be grateful if you could share the reported self-splicing fitness (ln) for `UCUUAGCAAUAUUACGGCAU` .
-3.42

I would be grateful if you could share the reported self-splicing fitness (ln) for `AGGUAGCAAUAUUACGCAUU` .
-1.86

I would be grateful if you could share the reported self-splicing fitness (ln) for `GAUAAGCAAUAUUACGAAUG` .
-1.28

I would be grateful if you could share the reported self-splicing fitness (ln) for `GGGAAGCAAUAUUACGUUCG` .
-0.436

I would be grateful if you could share the reported self-splicing fitness (ln) for `AAAAAGCAAUAUUACGUGUA` .
-1.78
